molecular target: human ether-à-go-go-related gene (hERG) potassium channel (human); test: primary screen, population patch clamp on CHO cells stably expressing hERG; higher = less effect of the substance;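 also: peak tail current of the secondary pulse compared with the same well before compound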
About 14,000 (4.5%) of roughly 310,000 compounds showed an effect of 50% or more. Effects have a minus sign here. This is one part of a sample in which strong results are shown more often than they occur.
Items are presented alongside their recorded hERG current change (%, negative = inhibition) at 10uM.
quantity name: hERG current change (%, negative = inhibition) at 10uM (%)

{"compound": "COc1ccccc1NC(=S)NC(NC(=O)CC(C)C)C(Cl)(Cl)Cl (stereo not shown)", "system name": "human ether-à-go-go-related gene (hERG) potassium channel (human)", "recorded value": 22.2}
{"compound": "O=C(O)C(=O)O.OC(COC(c1ccc(F)cc1)c1ccc(F)cc1)CN1CCCC1 (stereo not shown)", "system name": "human ether-à-go-go-related gene (hERG) potassium channel (human)", "recorded value": -70.6}
{"compound": "CCC(Sc1nnc(-c2ccc(C)c(Cl)c2)n1CC)C(=O)Nc1nccs1 (stereo not shown)", "system name": "human ether-à-go-go-related gene (hERG) potassium channel (human)", "recorded value": -20.6}
{"compound": "C1CN(CCN2CCOCC2)CCN1", "system name": "human ether-à-go-go-related gene (hERG) potassium channel (human)", "recorded value": 21}
{"compound": "CC(=O)c1ccc(OCC(O)CN2CCN(CCO)CC2)cc1.Cl (stereo not shown)", "system name": "human ether-à-go-go-related gene (hERG) potassium channel (human)", "recorded value": 9.1}
{"compound": "O=C(O)C(=O)O.OCCN1CCN(CC(O)COC(c2ccc(F)cc2)c2ccc(F)cc2)CC1 (stereo not shown)", "system name": "human ether-à-go-go-related gene (hERG) potassium channel (human)", "recorded value": -61.9}
{"compound": "CCOC(=O)c1c(C)[nH]c(C)c1C(=O)C(Cc1ccccc1)N(C)C.Cl (stereo not shown)", "system name": "human ether-à-go-go-related gene (hERG) potassium channel (human)", "recorded value": 4.71}
{"compound": "O=C(O)C(=O)O.OC1CCCN(CC(O)COC(c2ccc(F)cc2)c2ccc(F)cc2)C1 (stereo not shown)", "system name": "human ether-à-go-go-related gene (hERG) potassium channel (human)", "recorded value": -57.6}
{"compound": "CCCn1c(=N)n(CC(O)COc2ccc(C)cc2)c2ccccc21.Cl (stereo not shown)", "system name": "human ether-à-go-go-related gene (hERG) potassium channel (human)", "recorded value": -89}
{"compound": "Cn1nnc2cc(C(=O)Nc3ccc(Cl)cc3)ccc21", "system name": "human ether-à-go-go-related gene (hERG) potassium channel (human)", "recorded value": -3.78}

* * *

target: human ether-à-go-go-related gene (hERG) potassium channel (human, UniProt Q12809); assay: primary screen, population patch clamp on CHO cells stably expressing hERG; higher = less effect of the substance;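 also: peak tail current of the secondary pulse compared with the same well before compound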
Sequence (Q12809 whole entry, looked up): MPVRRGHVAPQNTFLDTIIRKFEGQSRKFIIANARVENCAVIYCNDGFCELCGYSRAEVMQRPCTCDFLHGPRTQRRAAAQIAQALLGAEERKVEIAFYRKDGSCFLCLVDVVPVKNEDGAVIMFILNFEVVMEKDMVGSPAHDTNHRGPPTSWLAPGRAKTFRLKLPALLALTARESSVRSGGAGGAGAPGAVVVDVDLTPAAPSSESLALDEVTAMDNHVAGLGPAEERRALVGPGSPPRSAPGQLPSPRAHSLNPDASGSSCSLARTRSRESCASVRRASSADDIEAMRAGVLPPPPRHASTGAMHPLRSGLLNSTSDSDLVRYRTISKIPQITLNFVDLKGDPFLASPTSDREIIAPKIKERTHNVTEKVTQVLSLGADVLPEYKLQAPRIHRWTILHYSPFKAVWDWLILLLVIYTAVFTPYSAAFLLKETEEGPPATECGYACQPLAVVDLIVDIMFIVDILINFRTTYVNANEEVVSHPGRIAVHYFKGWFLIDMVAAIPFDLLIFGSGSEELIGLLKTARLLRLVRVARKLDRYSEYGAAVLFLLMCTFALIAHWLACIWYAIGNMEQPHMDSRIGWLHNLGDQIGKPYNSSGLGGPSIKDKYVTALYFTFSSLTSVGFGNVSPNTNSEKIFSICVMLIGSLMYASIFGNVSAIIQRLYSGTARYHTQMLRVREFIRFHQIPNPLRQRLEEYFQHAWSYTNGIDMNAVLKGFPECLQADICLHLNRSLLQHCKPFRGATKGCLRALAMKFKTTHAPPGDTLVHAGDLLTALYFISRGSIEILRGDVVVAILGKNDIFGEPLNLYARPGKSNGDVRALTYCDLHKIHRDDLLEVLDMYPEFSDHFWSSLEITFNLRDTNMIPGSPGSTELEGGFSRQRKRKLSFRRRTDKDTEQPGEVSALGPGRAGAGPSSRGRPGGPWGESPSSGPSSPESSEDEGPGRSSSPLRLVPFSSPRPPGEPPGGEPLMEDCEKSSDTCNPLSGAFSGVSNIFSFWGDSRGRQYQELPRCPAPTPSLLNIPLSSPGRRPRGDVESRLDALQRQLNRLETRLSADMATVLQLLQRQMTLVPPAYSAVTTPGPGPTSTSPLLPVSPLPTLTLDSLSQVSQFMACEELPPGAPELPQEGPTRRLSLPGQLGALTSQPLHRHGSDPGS
Out of some 310,000 compounds screened, about 14,000 (4.5%) showed an effect of 50% or more. Effects have a minus sign here. What follows is part of a selection rich in strong results, with near analogues and random picks from the rest.
The entries below are paired with their reported hERG current change (%, negative = inhibition) at 10uM.
quantity name: hERG current change (%, negative = inhibition) at 10uM (%)

{"molecule": "CCCCn1c(NCc2ccc3c(c2)OCO3)nc2ccccc21", "units symbol": "%", "recorded value": -61}
{"molecule": "CCCn1c(NCc2ccc3c(c2)OCO3)nc2ccccc21", "units symbol": "%", "recorded value": 12.6}
{"molecule": "O=C(NCCN1CCOCC1)C(=O)NCc1ccc2c(c1)OCO2", "units symbol": "%", "recorded value": 22.8}
{"molecule": "Nc1c(C(=O)NCc2ccc3c(c2)OCO3)c2nc3ccccc3nc2n1CCCN1CCOCC1", "units symbol": "%", "recorded value": 1.46}
{"molecule": "COc1ccc(N2CCN(CC(O)COC(c3ccccc3)c3ccccc3)CC2)cc1 (stereo not shown)", "units symbol": "%", "recorded value": -64.9}
{"molecule": "CN(C)CCn1c(NCc2ccc3c(c2)OCO3)nc2ccccc21.Cl", "units symbol": "%", "recorded value": -59.5}
{"molecule": "O=C(NC(NC(=O)c1c(F)cccc1F)c1ccc([N+](=O)[O-])cc1)c1c(F)cccc1F", "units symbol": "%", "recorded value": -43.8}
{"molecule": "CCCCn1c(NCc2ccc(N(C)C)cc2)nc2ccccc21", "units symbol": "%", "recorded value": -43.7}
{"molecule": "CC(=O)c1ccc(N2CCN(CC(O)COC(c3ccccc3)c3ccccc3)CC2)cc1 (stereo not shown)", "units symbol": "%", "recorded value": -66.5}
{"molecule": "Oc1ccccc1-c1nc(NCCN2CCOCC2)c2ccccc2n1", "units symbol": "%", "recorded value": -26.2}
